details: [M-H]-; instrument: DT; single field, calibrated with Agilent tune mix (Agilent)
Property measured: collision cross section (N2) (Å²)
Give your result in Å² as a bare value.

Request the reported collision cross section (N2) associated with Cn1cnc2c(ncn2[C@@H]2O[C@H](CO)[C@@H](O)[C@H]2O)c1=N
159.21

Request the reported collision cross section (N2) associated with Nc1ncnc2c1ncn2[C@@H]1O[C@H](COP(=O)(O)OP(=O)(O)OP(=O)(O)O)[C@@H](O)[C@H]1O [Adenosine 5'-triphosphate]
185.74

Request the reported collision cross section (N2) associated with CC(C)=CCC/C(C)=C/CC/C(C)=C/COP(=O)(O)OP(=O)(O)O [Farnesyl pyrophosphate]
183.85

Request the reported collision cross section (N2) associated with C[C@H](CCC(=O)O)[C@H]1CC[C@H]2[C@@H]3CC[C@@H]4C[C@H](O)CC[C@]4(C)[C@H]3CC[C@]12C
199.95

----------
details: [M+H]+; instrument: TW; Major Mix IMS/Tof Calibration Kit (Waters)
Please go through the items and note down their collision cross section (N2).
Give your result in Å² as a bare value.

Request the reported collision cross section (N2) associated with COC(=O)[C@H]1[C@@H](OC(=O)c2ccccc2)C[C@@H]2CC[C@H]1N2C [Cocaine]
169.8

Request the reported collision cross section (N2) associated with O=C1Nc2ccc(Cl)cc2C(c2ccccc2Cl)=NC1O (stereo not drawn) [Lorazepam]
165.8

Request the reported collision cross section (N2) associated with Cc1cc(NS(=O)(=O)c2ccc(N)cc2)no1 [Sulfamethoxazole]
151

Request the reported collision cross section (N2) associated with CCOC(=O)N1CCC(=C2c3ccc(Cl)cc3CCc3cccnc32)CC1 [Loratadine]
187.4

Request the reported collision cross section (N2) associated with CC(C)c1c(C(=O)Nc2ccccc2)c(-c2ccccc2)c(-c2ccc(F)cc2)n1CC[C@@H](O)C[C@@H](O)CC(=O)O [Atorvastatin]
233

Request the reported collision cross section (N2) associated with OCCN1CCN(CCCN2c3ccccc3Sc3ccc(Cl)cc32)CC1 [Perphenazine]
193.2

Request the reported collision cross section (N2) associated with CN1C(=O)CC[C@H]1c1cccnc1 [Cotinine]
140.7

Request the reported collision cross section (N2) associated with N#Cc1ccc2c(c1)N(CCCN1CCC(O)CC1)c1ccccc1S2 [Periciazine]
186.4

----------
Please go through the items and note down their collision cross section (N2).
details: [M+H]+; instrument: TW; calibrated with polyalanine and drug standards
Counter-ions that a name gives are not always drawn.
Give your result in Å² as a bare value.

Request the reported collision cross section (N2) associated with COC1=CC(=O)O[C@@H](/C=C/c2ccccc2)C1
149.4

Request the reported collision cross section (N2) associated with COc1ccc(C(=O)c2ccc(O)cc2)c(O)c1O [2,3,4'-TRIHYDROXY-4-METHOXYBENZOPHENONE]
152.9

Request the reported collision cross section (N2) associated with CCc1cc(C(N)=S)ccn1 [ETHIONAMIDE]
135.8

Request the reported collision cross section (N2) associated with COc1cc(OC)c2c(=O)c(-c3ccccc3)c(C)oc2c1OC
173.6

Request the reported collision cross section (N2) associated with O=C(O)c1cc(-c2ccccc2)nc2ccccc12
154.3

Request the reported collision cross section (N2) associated with CCOC(=O)c1ncn2c1CN(C)C(=O)c1cc(F)ccc1-2
165.6

Request the reported collision cross section (N2) associated with C[C@H](CCC(=O)NCC(=O)O)[C@H]1CC[C@H]2[C@@H]3[C@H](O)C[C@@H]4C[C@H](O)CC[C@]4(C)[C@H]3C[C@H](O)[C@]12C
205.2

Request the reported collision cross section (N2) associated with CCCCCc1c2c(cc(O)c1C(=O)O)OC(=O)c1c(cc(OC)cc1C(=O)CCCC)O2
209.7

Request the reported collision cross section (N2) associated with OC1(c2ccc(Cl)c(C(F)(F)F)c2)CCN(CCCC(c2ccc(F)cc2)c2ccc(F)cc2)CC1
219.1

Request the reported collision cross section (N2) associated with Nc1ccc(S(=O)(=O)Nc2nccs2)cc1
150.8

Request the reported collision cross section (N2) associated with COc1ccc(-c2coc3c(O)c(OC)ccc3c2=O)cc1
164.1

Request the reported collision cross section (N2) associated with c1cncc(C2=NCCC2)c1
128.2

Request the reported collision cross section (N2) associated with COc1ccc(-c2oc3cc(OC)c(OC)c(OC)c3c(=O)c2OC)cc1
181.9

Request the reported collision cross section (N2) associated with C/C=C/c1ccc2c(c1)OCO2
138.4

Request the reported collision cross section (N2) associated with COc1ccc(C(=O)CC(=O)c2ccc(C(C)(C)C)cc2)cc1
181.2

Request the reported collision cross section (N2) associated with COc1ccc(/C=C/C(=O)c2cc(O)ccc2O)cc1 [2',5'-DIHYDROXY-4-METHOXYCHALCONE]
162.1

Request the reported collision cross section (N2) associated with C[C@]12CCC(=O)C=C1CC[C@@H]1[C@@H]2[C@@H](O)C[C@@]2(C)[C@H]1CC[C@]2(O)C(=O)COC(=O)CCC(=O)O [HYDROCORTISONE HEMISUCCINATE]
212.4

Request the reported collision cross section (N2) associated with CCCc1cc(C(N)=S)ccn1 [PROTIONAMIDE]
141.3

Request the reported collision cross section (N2) associated with CC(=O)O[C@]1(C(C)=O)CC[C@H]2[C@@H]3C=C(Cl)C4=CC(=O)[C@@H]5C[C@@H]5[C@]4(C)[C@H]3CC[C@@]21C [CYPROTERONE ACETATE]
199.4

Request the reported collision cross section (N2) associated with COc1ccc(C(=O)c2ccccc2O)c(O)c1
150

Request the reported collision cross section (N2) associated with CN(C)Cc1c[nH]c2ccccc12
134.9

Request the reported collision cross section (N2) associated with O=C(/C=C/C(=O)Oc1ccccc1C(=O)O)Oc1ccccc1C(=O)O [BISSALICYL FUMARATE]
171.1

Request the reported collision cross section (N2) associated with CO[C@H]1/C=C/O[C@@]2(C)Oc3c(C)c(O)c4c(O)c(c5c(nc6cc(C)ccn65)c4c3C2=O)NC(=O)/C(C)=C\C=C\[C@H](C)[C@H](O)[C@@H](C)[C@@H](O)[C@@H](C)[C@H](OC(C)=O)[C@@H]1C
267.8

Request the reported collision cross section (N2) associated with CCC(C)C(=O)O[C@@H]1C[C@@]2(C)[C@H](c3ccoc3)OC(=O)CC23OC2(C)O[C@]14[C@]1(C)[C@@H](CC(=O)OC)C5(C)CC1(O)[C@](O)(C5OC(=O)C1(C)OC1C)[C@@H](OC(C)=O)[C@]34O2 (stereo not given in full)
252.5

Request the reported collision cross section (N2) associated with C[C@]12CCC(=O)C=C1CC[C@@H]1[C@@H]2[C@@H](O)C[C@@]2(C)[C@H]1CC[C@]2(O)C(=O)CO [HYDROCORTISONE]
185.1

Request the reported collision cross section (N2) associated with Nc1ccc(C(=O)Oc2ccccc2)c(O)c1 [PHENYL AMINOSALICYLATE]
163.4

Request the reported collision cross section (N2) associated with C[N+](C)(C)C[C@H](O)CC(=O)[O-]
132.9

Request the reported collision cross section (N2) associated with COc1ccc(-c2coc3cc(O)ccc3c2=O)cc1
156.8

Request the reported collision cross section (N2) associated with COc1ccc(/C=C/C(=O)c2ccc(O)cc2O)cc1 [2',4'-DIHYDROXY-4-METHOXYCHALCONE]
162.2

Request the reported collision cross section (N2) associated with C[C@H](CCC(=O)O)[C@H]1CC[C@H]2[C@@H]3CC[C@@H]4CCCC[C@]4(C)[C@H]3CC[C@]12C
169.3

----------
conditions: [M+Na]+; instrument: DT; stepped-field
Please go through the items and note down their collision cross section (N2).
Give your result in Å² as a bare value.

Request the reported collision cross section (N2) associated with CCCCC/C=C\C/C=C\C/C=C\C/C=C\CCCCCC(=O)OC[C@H](COP(=O)(O)OC[C@H](N)C(=O)O)OC(=O)CCC/C=C\C/C=C\C/C=C\C/C=C\CCCCC [PS(42:8)]
301.3

Request the reported collision cross section (N2) associated with CCCCCCCCC/C=C\CCCCCCCC(=O)O[C@H](COC(=O)CCCCCCCCCCCC)COP(=O)(O)OCCN [PE(32:1)]
274.1

Request the reported collision cross section (N2) associated with CC/C=C\C/C=C\C/C=C\C/C=C\CCCCC(=O)OC[C@H](COP(=O)(O)OC[C@H](N)C(=O)O)OC(=O)CCCCC/C=C\C/C=C\C/C=C\C/C=C\CCCCC [PS(40:8)]
293.6

Request the reported collision cross section (N2) associated with CCCCCCCCCCCCC=CC[C@@H](O)[C@H](COP(=O)([O-])OCC[N+](C)(C)C)NC(=O)CC=CCC=CCCCCCCCCCCCCCCCCC [SM(42:3)]
305.6

Request the reported collision cross section (N2) associated with CCCCC/C=C\C/C=C\C/C=C\C/C=C\CCCC(=O)O[C@H](COC(=O)CCCC/C=C\C/C=C\C/C=C\CCCCC)COP(=O)(O)OCCN [PE(38:7)]
283.7

Request the reported collision cross section (N2) associated with CCCCCCCCCCCCC=CC[C@@H](O)[C@H](COP(=O)([O-])OCC[N+](C)(C)C)NC(=O)CC=CCCCCCCCCCCCCCC [SM(36:2)]
290.9
